I'd be grateful if you could share measured growth for these entries.
- Test system: HCT-15 colon
- assay-remarks: NCI-60 one-dose screen, 48 h (100 = growth as untreated, 0 = no growth, -100 = all killed)
- measurement-conditions: 10 µM
Compounds without any hit were thinned out: in the full panel of roughly 83,000, 20% have a hit.
Answers are plain numbers, in %.

As a guide, the following entries are already answered.
COc1ccc(-c2ccc3cc(C(=O)Nc4ccc(O)c(C(=O)/C=C/c5cc(OC)c(OC)c(OC)c5)c4)ccc3c2)cc1 | 80.4
COc1cccc(-c2cc(-c3cccc(NS(C)(=O)=O)c3)nc(N)c2C#N)c1O | 26.7
Cc1cc(Cc2cc(C)c(O)c(C)c2)cc(C)c1O | 38.2
CCOC(=O)c1ccc(NC(=O)Nc2ncc(Cl)cc2Cl)cc1 | 102
O=C1OCC2=C1C(c1cccc(Cl)c1)c1cc3c(cc1N2CCO)CCC3 (stereo not drawn) | 9.71

Respectfully, I request growth for each entry included below.
1. C#Cc1ccc(-n2c(/C=C/c3ccc(Cl)c(F)c3)nc3ncccc3c2=O)cc1
2. CCCCCCCNc1nc(C=O)ncc1-c1ccc(C(F)(F)F)cc1
3. COc1cc2nc(Nc3cccc(NC(C)=O)c3)nc(N)c2cc1OC
4. CN(C)CC(O)c1ccc2cc(Br)c3ccccc3c2c1 (stereo not drawn)
5. CN(C)CCS(=O)(=O)CCN(C)C
6. COc1cc(OC)cc(-c2cncn2-c2ccc(-c3nc4cc(OC)cc(OC)c4s3)cc2)c1
7. COc1ccc(NC(=O)Cc2nc3nc4sc(C)c(C)c4c(=O)n3[nH]2)cc1
8. COc1ccc(-c2nn(-c3cccc(NC(=O)c4ccc(Cl)c(Cl)c4)c3)cc2-c2ccncc2)cc1Cl

Ans.
2.43
97.6
93.8
53.7
103
48.4
99.7
75.2

Respectfully, I request growth for each entry included below.
1. COc1cc(Cc2cc(-c3ccc(Cl)cc3)n[nH]c2=O)ccc1O
2. COc1ccc(-c2nsc3c2NC(=O)CC3c2ccc(F)cc2)cc1 (stereo not drawn)
3. O=[N+]([O-])c1ccc(N/N=C/c2cccc3ccccc23)nc1
4. CCOC(=O)N1C/C(=C/c2ccc(OC)cc2)C(=O)/C(=C/c2ccc(OC)cc2)C1

Ans.
[104, 24.4, 91.1, 3.06]

Respectfully, I request growth for each entry included below.
1. C[N+](C)(C)c1ncnc2nc[nH]c12
2. Nc1nc(Nc2ccccc2)n[nH]1
3. CC1(O)CCC2CC3OC3(C)CCC3OC3(C)CCC1C2(C)C (stereo not drawn)
4. O=C(CCCCCCC(=O)Nc1cccnc1)NO

Ans.
1: 94.2; 2: 93.8; 3: 105; 4: 93.1

Respectfully, I request growth for each entry included below.
1. CN(C)Cc1cn(-c2ncc(-c3ccc(C(F)(F)F)cc3)c(NC3CCCCCC3)n2)nn1
2. CN(C)C=Nc1cc(Cl)ccc1Cl

Ans.
1: 94.1; 2: 103

* * *

- Test system: SK-MEL-5 melanoma
- assay-remarks: NCI-60 one-dose screen, 48 h (100 = growth as untreated, 0 = no growth, -100 = all killed)
- measurement-conditions: 10 µM
About 83,000 compounds went through this panel and 20% of them were active in at least one assay; those are over-represented in the sample as a whole.
Classification field: enter 1.0 for growth values not below 90%, 0.0 for values below it.

Some solved cases for reference:
CN(C)Cc1cn(-c2ncc(-c3ccc(C(F)(F)F)cc3)c(NC3CCCCCC3)n2)nn1 | 0.0
O=C(Nc1cccc(-n2cc(-c3ccncc3)c(-c3ccc(O)c(Cl)c3)n2)c1)c1cccc(C(F)(F)F)c1 | 0.0
COc1cc(-c2cc(/C=C3\C(=O)Nc4ccc(Cl)cc43)[nH]n2)cc(OC)c1OC | 0.0
CN1c2ccccc2[C@]2(Cc3ccccc3)Cc3ccccc3N[C@H]12 | 1.0
CCCCC(CCCCCC(CCCC)NCc1ccc2c(c1)OCO2)NCc1ccc2c(c1)OCO2 (configuration not stated) | 0.0
Nc1ncn(C2OC(CO)C(O)C2O)c(=O)n1 (configuration not stated) | 0.0

Qu. Given "N=C(N)c1ccc(-c2ccc(-c3ccco3)o2)cc1" , state whether its growth is at least 90%.
Ans. 0.0

Qu. Now consider "CSc1nn(-c2ccccc2)c2ncnc(Oc3ccc(C)cc3)c12" and answer again.
Ans. 1.0
